Data origin, for the record: paper PMC7426938

system: zebrafish (ABiC) embryos; assay: Zebrafish embryo developmental toxicity assay; assay type: in vivo, zebrafish (Danio rerio); parameters: unit not given here; conditions: 24 hpf, 200 μM
endpoint-name: Mean survival rate of zebrafish embryos

structure_smiles_string=CC(C)[C@@H]1NC(=O)[C@@H]2CCCN2C1=O result="75.55 ± 3.44"
structure_smiles_string=O=C1N[C@@H](Cc2ccc(O)cc2)C(=O)N2CCC[C@@H]12 result="71.55 ± 5.12"
structure_smiles_string=CC(C)C[C@@H]1NC(=O)[C@@H]2CCCN2C1=O result="75 ± 5.77"

Proceed to the following item.
-- ask Any idea what Mean survival rate of zebrafish embryos was measured for "O=C1N[C@@H](Cc2ccccc2)C(=O)N2CCC[C@@H]12" ?
-- reply 75.55 ± 4.12

----------
system: HT-29 cells; assay: Annexin V-FITC/PI double staining, flow cytometry; format: cell-based, human; conditions: 200 μM, 24 h, vs CTL
Listed compounds paired with reported Q1 dead cells, fold change
Use fold as the unit, but write only the number.

structure_smiles_string=O=C1N[C@@H](Cc2ccccc2)C(=O)N2CCC[C@@H]12 numeric_result=1.3
structure_smiles_string=O=C1N[C@@H](Cc2ccc(O)cc2)C(=O)N2CCC[C@@H]12 numeric_result=2.1
structure_smiles_string=CC(C)[C@@H]1NC(=O)[C@@H]2CCCN2C1=O numeric_result=1.2

Alright, here's another compound for you.
-- ask Quick one: Q1 dead cells, fold change of "CC(C)C[C@@H]1NC(=O)[C@@H]2CCCN2C1=O" ?
-- reply 1.1

----------
test system: Cytc (Cytochrome-c) mRNA in HT-29 cells; assay: sqRT-PCR gene expression, Cytc; type: cell-based, human; settings: 200 μM, 24 h, vs untreated cells
endpoint-name: Cytc gene expression up-regulation (fold)
Supply the numeric figure in fold, leaving out any unit text.

compound="O=C1N[C@@H](Cc2ccccc2)C(=O)N2CCC[C@@H]12 [DKP-3, cyclo (L-Pro-L-Phe)]" numeric_result=4.29
compound="O=C1N[C@@H](Cc2ccc(O)cc2)C(=O)N2CCC[C@@H]12 [DKP-4, cyclo (L-Pro-L-Tyr)]" numeric_result=3.62
compound="CC(C)[C@@H]1NC(=O)[C@@H]2CCCN2C1=O [DKP-2, cyclo (L-Pro-L-Val)]" numeric_result=1.78

Next, consider the following compound.
-- ask Field request: Cytc gene expression up-regulation | item: CC(C)C[C@@H]1NC(=O)[C@@H]2CCCN2C1=O [DKP-1, cyclo (L-Pro-L-Leu)]
-- reply 2.32

----------
test system: zebrafish (ABiC) embryos; test: Zebrafish embryo developmental toxicity assay; assay type: in vivo, zebrafish (Danio rerio); set-up: unit not given here; conditions: 96 hpf, 200 μM
Each item that follows carries a reported Mean survival rate of zebrafish embryos.

In the examples that follow, each entry is paired with its recorded Mean survival rate of zebrafish embryos.
structure_smiles_string=CC(C)[C@@H]1NC(=O)[C@@H]2CCCN2C1=O result="66.66 ± 5.96"
structure_smiles_string=O=C1N[C@@H](Cc2ccc(O)cc2)C(=O)N2CCC[C@@H]12 result="68.24 ± 5.89"
structure_smiles_string=CC(C)C[C@@H]1NC(=O)[C@@H]2CCCN2C1=O result="66.66 ± 5.96"

Now consider the entry below.
-- ask So what's the measured Mean survival rate of zebrafish embryos for this one? "O=C1N[C@@H](Cc2ccccc2)C(=O)N2CCC[C@@H]12"
-- reply 69.22 ± 12
